- Tested on: NEK9
- study_conditions: concentration: 1 μM, replicates: in singlicate; n = 1;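 note: KINOMEscan kinase panel screen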
Listed below: %Inh values for each entry.
All answers are understood in %, so give the number only.

compound	assayed_system	%Inh / %
Cc1cccc(-c2nc(Nc3ccc4ncsc4c3)c3ccccc3n2)n1	NEK9	0
Fc1ccc(-c2nn3c(OCC(F)(F)F)cccc3c2-c2ccncc2)cc1	NEK9	4

Ask: Lookup: %Inh / NEK9 / Cc1ccc(NC(=O)c2ccnc(N3CCN(C)CC3)c2)cc1-c1ccc(C(=O)NCC2CC2)cc1
Reply: 0

Ask: Lookup: %Inh / NEK9 / Cc1cccc(Cn2ccn3c(=O)cc(N4CCOCC4)nc23)c1
Reply: 15

Ask: Lookup: %Inh / NEK9 / O=C(Nc1cccc(-c2nn3ncccc3c2-c2ccnc(Nc3cccc(C(F)(F)F)c3)n2)c1)c1c(F)cccc1F
Reply: 0

Ask: Lookup: %Inh / NEK9 / COc1cc(Nc2nccc(N3CCC(NC(=O)c4cccc(NC(C)=O)c4)C3)n2)cc(OC)c1OC (centres unmarked)
Reply: 49

Ask: Lookup: %Inh / NEK9 / COCCNC(=O)c1ccc(-c2cc(C(=O)NC3CC3)cc(F)c2C)cc1
Reply: 0

Ask: Lookup: %Inh / NEK9 / O=C(c1ccc(-c2cc(-c3c[nH]nc3-c3ccccn3)ccn2)cc1)N1CCOCC1
Reply: 0

---

- System: MST2
- Construct: gene STK3
- study_conditions: concentration: 1 μM, replicates: in singlicate; n = 1
measurement_type: %Inh (%)
All answers are understood in %, so give the number only.

Record excerpt, results attached:
compound	unit_string	%Inh
Cc1c(Cn2c(C)nn3c(=O)cc(N4CCOC(C)C4)nc23)cccc1C(F)(F)F (centres unmarked)	%	0
CCc1ccnc(/C=C/c2n[nH]c3cc(Sc4ccccc4C(=O)NC)ccc23)c1	%	36
O=C(Nc1n[nH]c2cc(-c3cccc(F)c3)ccc12)C1CC1	%	0

Ask: Recorded %Inh of Cc1cn2c(=O)cc(N3CCOCC3)nc2n1Cc1cccc(Cl)c1Cl , please.
Reply: 0

Ask: Recorded %Inh of COc1ccc(Nc2nccc(N3CCC(NC(=O)Nc4cc(C)ccc4C)C3)n2)cc1 (centres unmarked) , please.
Reply: 1

Ask: Recorded %Inh of Cc1nnc(-c2ccc(C)c(-c3ccc(C(=O)Nc4ccc(NS(C)(=O)=O)cc4)cc3)c2)o1 , please.
Reply: 0

Ask: Recorded %Inh of Cc1cccc(Cn2ccn3c(=O)cc(N4CCOCC4)nc23)c1 , please.
Reply: 0

Ask: Recorded %Inh of COc1ccc(S(=O)(=O)NC2CCN(c3cc(C)nc(Nc4cccc(C#N)c4)n3)CC2)cc1.O=C(O)C(F)(F)F , please.
Reply: 0

Ask: Recorded %Inh of Cc1ccc(NC(=O)c2ccnc(N3CCN(C)CC3)c2)cc1-c1ccc(C(=O)NCC2CC2)cc1 , please.
Reply: 11

Ask: Recorded %Inh of O=C(NCCNc1ccnc(Nc2ccc(F)cc2)n1)c1cc2ccccc2s1 , please.
Reply: 0

Ask: Recorded %Inh of CCc1nc(-c2cccc(C)c2)c(-c2ccnc(NCc3ccccc3)c2)s1 , please.
Reply: 0

---

- Test system: FLT3-autoinhibited
- study_conditions: concentration: 1 μM, replicates: in singlicate; n = 1
Listed below: %Inh values for each entry.
All answers are understood in %, so give the number only.

Record excerpt, results attached:
compound	%Inh [%]
Cl.Nc1ncnc2occ(-c3ccc(NC(=O)Nc4cc(C(F)(F)F)ccc4F)cc3)c12 [SB-707548]	83
Nc1nc(-c2ccc3c(N)n[nH]c3c2)cc(N2CCCC2)n1 [GSK2227430]	0

Ask: Recorded %Inh of COc1ccc(COc2cc(-n3cnc4ccccc43)sc2C(N)=O)cc1 [GSK1024304] , please.
Reply: 0

Ask: Recorded %Inh of COc1ccc(CNC(=O)NC2CCN(c3ccnc(Nc4ccc(OC)cc4)n3)C2)cc1 (stereo not shown) [GSK1379727] , please.
Reply: 0

Ask: Recorded %Inh of Cc1cccc(Cn2ccn3c(=O)cc(N4CCOCC4)nc23)c1 [GSK2297542] , please.
Reply: 2

Ask: Recorded %Inh of CSc1ccc(-c2cc3ncnc(SCC(=O)O)c3s2)cc1 , please.
Reply: 0

Ask: Recorded %Inh of c1ccc(-c2n[nH]cc2-c2ccnc3ccccc23)nc1 [GW271431] , please.
Reply: 5

Ask: Recorded %Inh of Fc1ccc(-c2nn3c(OCC(F)(F)F)cccc3c2-c2ccncc2)cc1 [GW514784] , please.
Reply: 0

Ask: Recorded %Inh of Cc1nnc(-c2ccc(C)c(-c3ccc(C(=O)Nc4ccc(NS(C)(=O)=O)cc4)cc3)c2)o1 [GW702865] , please.
Reply: 0

Ask: Recorded %Inh of CC(C)(C)n1cnc2c(N)ncnc21 [SKF-97359] , please.
Reply: 0

Ask: Recorded %Inh of CNc1ncnc2[nH]ncc12 [SKF-18355] , please.
Reply: 0

Ask: Recorded %Inh of CN1c2ccc(CNc3ccc(F)cc3)cc2-c2c(cnn2C)S1(=O)=O , please.
Reply: 0

Ask: Recorded %Inh of O=C(NOCC1CC1)c1ccc(F)c(F)c1Nc1ccc(I)cc1Cl , please.
Reply: 0

Ask: Recorded %Inh of COc1cc2c(cc1OC[C@@H](O)CO)ncc1c3ccc(C#N)cc3[nH]c21 , please.
Reply: 90
